test.description: chemical genetic growth profiling, strain panel (AID 1159580);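 also: tested at 20 µM; growth read once vehicle control cultures reached saturation at 30 °C; 1 = growth at the plate median or of vehicle wells; lower values mean less growth of the strain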
experimental.setup: S. cerevisiae deletion strains, growth OD, locus YKL190W, strain CNB1
Out of some 5,500 compounds screened, about 2,000 (36%) were called active. Inconclusive results (about 18%) are left out. Rule as the data show it: active = normalized growth mostly below about 0.91 (no sharp cut-off); inconclusive = no clear call, values can overlap the other calls; inactive = mostly above about 0.92. The list shows a part of the results.
Classes used: class 1 for active, class 0 for inactive

> print(dat)
                                    compound  class.name
 1   C=C1C(N)CC2CC1C2(C)C (stereo not drawn)     class 0
 2                      CCCCCCCCCc1ccc(O)cc1     class 1
 3  CCn1cc(C(=O)O)c(=O)c2cc(F)c(N3CCNCC3)cc21     class 0
 4       COc1ccc(-c2cc(=O)c3cc(OC)ccc3o2)cc1     class 0
 5  CC(C)(C)OC(=O)NC1CCN(C(=O)c2ccc(Cl)cc2Cl)CC1     class 0
 6                            NCCc1cccc(O)c1     class 0
 7                        CCCCCCc1ccc(O)cc1O     class 0
 8  C=CCCCCCCCCCCCC(O)CC(O)CO (stereo not drawn)     class 0
 9      N#CC1COc2ccccc2O1 (stereo not drawn)     class 0
10           Cc1cc(C(F)(F)F)c(C#N)c(=O)[nH]1     class 0
11     CCCCC1C(=O)N(c2ccccc2)N(c2ccccc2)C1=O     class 0
12            COC(=O)C1=C(Nc2ccc(Cl)cc2)CSC1     class 1
13  Cn1nnnc1SCC1=C(C(=O)O)N2C(=O)C(NC(=O)C(O)c3ccccc3)C2SC1 (stereo not drawn)     class 0

The measured values listed here are drawn from PubChem BioAssay AID1159580.
